Target: ErbB3 on rat Schwann cells (rat) (UniProt Q62799)
Sequence (Q62799 20-1339): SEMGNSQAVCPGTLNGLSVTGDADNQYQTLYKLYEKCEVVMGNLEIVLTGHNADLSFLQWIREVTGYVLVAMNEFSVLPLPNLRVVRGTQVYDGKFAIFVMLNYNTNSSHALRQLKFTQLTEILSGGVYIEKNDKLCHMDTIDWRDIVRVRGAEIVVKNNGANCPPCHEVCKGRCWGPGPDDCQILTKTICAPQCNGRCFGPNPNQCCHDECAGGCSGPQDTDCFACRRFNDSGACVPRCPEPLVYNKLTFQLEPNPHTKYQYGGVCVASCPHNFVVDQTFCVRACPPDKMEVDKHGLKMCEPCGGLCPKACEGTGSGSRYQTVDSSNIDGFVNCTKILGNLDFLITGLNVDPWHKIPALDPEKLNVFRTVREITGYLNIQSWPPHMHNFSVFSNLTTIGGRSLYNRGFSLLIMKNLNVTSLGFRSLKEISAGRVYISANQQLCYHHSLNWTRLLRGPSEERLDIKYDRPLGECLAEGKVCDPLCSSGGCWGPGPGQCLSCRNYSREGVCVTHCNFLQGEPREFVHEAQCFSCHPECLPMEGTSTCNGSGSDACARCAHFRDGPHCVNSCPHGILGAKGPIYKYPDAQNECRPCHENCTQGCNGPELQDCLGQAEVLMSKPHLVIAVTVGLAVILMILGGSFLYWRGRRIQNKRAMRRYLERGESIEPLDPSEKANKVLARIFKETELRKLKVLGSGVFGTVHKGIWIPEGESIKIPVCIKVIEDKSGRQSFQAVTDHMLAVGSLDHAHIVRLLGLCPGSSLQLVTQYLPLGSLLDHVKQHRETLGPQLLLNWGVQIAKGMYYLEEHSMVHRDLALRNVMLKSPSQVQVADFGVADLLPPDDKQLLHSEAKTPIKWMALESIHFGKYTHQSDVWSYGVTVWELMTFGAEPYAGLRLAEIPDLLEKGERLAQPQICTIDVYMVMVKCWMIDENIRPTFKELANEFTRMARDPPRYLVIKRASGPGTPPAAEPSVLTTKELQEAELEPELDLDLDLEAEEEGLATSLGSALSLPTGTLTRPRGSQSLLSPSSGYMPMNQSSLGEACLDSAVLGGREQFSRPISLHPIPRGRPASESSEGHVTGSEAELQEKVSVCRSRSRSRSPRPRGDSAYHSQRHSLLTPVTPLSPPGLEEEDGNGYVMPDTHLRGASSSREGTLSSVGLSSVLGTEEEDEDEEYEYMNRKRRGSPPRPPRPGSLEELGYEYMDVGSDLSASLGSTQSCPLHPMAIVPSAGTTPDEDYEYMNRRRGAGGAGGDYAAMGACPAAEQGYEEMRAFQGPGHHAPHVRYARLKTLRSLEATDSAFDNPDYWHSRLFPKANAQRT
Assay: cell-based or functional assay
measured metric: Schwann cells (SC) (ErbB3) Avg EC50
In your response, the unit should come after the numeric value.

huNRG1(S177-Q237)(1B9)::GG::huFcSEFL2 (Pb) (Fc fusion) SHLVKCAEKHKSFCVNGGECFMVEDLSIPSRYLCKCPNEFTGDRCQDVFMASFYKAEELYQGGDKTHTCPPCPAPELLGGPSVFLFPPKPKDTLMISRTPEVTCVVVDVSHEDPEVKFNWYVDGVEVHNAKTKPCEEQYGSTYRCVSVLTVLHQDWLNGKEYKCKVSNKALPAPIEKTISKAKGQPREPQVYTLPPSREEMTKNQVSLTCLVKGFYPSDIAVEWESNGQPENNYKTTPPVLDSDGSFFLYSKLTVDKSRWQQGNVFSCSVMHEALHNHYTQKSLSLSPGK | 1000 nM

Consider the additional binder presented here.
Recorded Schwann cells (SC) (ErbB3) Avg EC50 (binder huNRG1(S177-Q237)()200E_KDF)::GG::huFcSEFL2 (Pb) (Fc fusion) SHLVKCAEKEKTFCVNGGECFMVEDLSNPSRYLCKCPNEFTGDRCQKDFMASFYKAEELYQGGDKTHTCPPCPAPELLGGPSVFLFPPKPKDTLMISRTPEVTCVVVDVSHEDPEVKFNWYVDGVEVHNAKTKPCEEQYGSTYRCVSVLTVLHQDWLNGKEYKCKVSNKALPAPIEKTISKAKGQPREPQVYTLPPSREEMTKNQVSLTCLVKGFYPSDIAVEWESNGQPENNYKTTPPVLDSDGSFFLYSKLTVDKSRWQQGNVFSCSVMHEALHNHYTQKSLSLSPGK ): 121 nM

Each recorded value in this set is attributed to patent US20220402985A1.
